- Assayed Target: human plasma-derived FIXa (Haematologic Technologies Inc) (human, UniProt P00740 47-191; P00740 227-461)
- Sequence (P00740 47-191, chain 1 of 2): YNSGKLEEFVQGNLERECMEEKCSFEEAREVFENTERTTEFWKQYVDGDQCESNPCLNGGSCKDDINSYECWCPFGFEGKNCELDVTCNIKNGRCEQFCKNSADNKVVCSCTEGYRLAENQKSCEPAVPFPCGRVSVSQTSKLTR
- Sequence (P00740 227-461, chain 2 of 2): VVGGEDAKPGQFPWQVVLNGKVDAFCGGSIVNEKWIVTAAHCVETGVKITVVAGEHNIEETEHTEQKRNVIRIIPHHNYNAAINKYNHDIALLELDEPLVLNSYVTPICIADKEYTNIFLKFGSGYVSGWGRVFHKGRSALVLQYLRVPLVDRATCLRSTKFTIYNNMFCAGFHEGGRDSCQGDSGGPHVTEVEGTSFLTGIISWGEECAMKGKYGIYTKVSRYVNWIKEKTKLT
- Experiment Description: cell-based or functional assay
This section presents binders with their documented FXa generation rate at 50 nM mAb values.
Answer with a number only, understood to be in pM/min.

[[record]]
binder = "mAb1-4071 (antibody, V domains shown) VH: EVQLVQSGAEVKKPGESLRISCKGSGYSFTPYWIGWVRQMPGKGLEWMGMIDPSDSYTDYGPSFRGHVTISADKSISTAYLQWSSLKASDTAMYYCARVRIREGAFDIWGQGTMVTVSS VL: DIVMTQSPLSLPVTPGEPASISCRSSQRLLHSTGYNYLNWYLQKPGQSPQLLIYLGSRRASGVPDRFSGSGSGTDFTLKISRVEAEDVGVYYCMQALHIPYTFGQGTKLEIK"
unit_descriptor = "pM/min"
reading = 173


Please turn your attention to the following entry.
Need FXa generation rate at 50 nM mAb, item mAb1-4624 (antibody, V domains shown) VH: EVQLVQSGAEVKKPGESLRISCKGSGYRFTSYWIGWVRQMPGKGLEWMGMIDPTDSYTDYGPSFRGHVTISADKSISTAYLQWSSLKASDTAMYYCARVRIMSGAFDIWGQGTMVTVSS VL: DIVMTQSPLSLPVTPGEPASISCRSSQSLLHSTWYNYLNWYLQKPGQSPQLLIYLGSNRASGVPDRFSGSGSGTDFTLKISRVEAEDVGVYYCMQVLHIPYTFGQGTKLEIK 989
